assay: Inhibition of Phosphorylase kinase (unknown origin) assessed as inhibition constant; design: species or system Homo sapiens
Recorded metric: pKi
As a rule, pKi stands for the negative log10 of the concentration, concentration in M.

// query Entry under review: CN(C)CCCn1cc(C2=C(c3c[nH]c4ccccc34)C(=O)NC2=O)c2ccccc21 . Reported pKi?
// result 6.30

###

assay: Inhibition of Phosphorylase kinase in rabbit muscle tissue in presence of [p32-gamma]-ATP measured after 10 mins by scintillation counter analysis; format: tissue-based, Oryctolagus cuniculus
pIC50: −log10 of the molar value.
Please mark t if the recorded pIC50 is equal to or greater than 6, and f if it falls below.

Known results for compounds:
CN(C)CCCn1c2ccccc2c2c3c(c4c5ccccc5[nH]c4c21)C(=O)NC3=O; t
NCCCn1cc(C2=C(c3c[nH]c4ccccc34)C(=O)NC2=O)c2ccccc21; t
COCCn1cc(C2=C(c3cn(CCCN(C)C)c4ccccc34)C(=O)NC2=O)c2ccccc21; f
CN(C)CCCn1cc(C2=C(c3cn(C)c4ccccc34)C(=O)NC2=O)c2ccccc21; f

Please turn your attention to the following entry.
// query Does the compound CC(CN(C)C)Cn1cc(C2=C(c3c[nH]c4ccccc34)C(=O)NC2=O)c2ccccc21 (stereo unspecified) have recorded pIC50 that is 6 or more?
// result f
